Molecular target: Ah‐BarR (P ah‐at aminotransferase promoter, mKate2 reporter) (Acidianus hospitalis, UniProt F4B5V3)
Sequence (F4B5V3 1-165): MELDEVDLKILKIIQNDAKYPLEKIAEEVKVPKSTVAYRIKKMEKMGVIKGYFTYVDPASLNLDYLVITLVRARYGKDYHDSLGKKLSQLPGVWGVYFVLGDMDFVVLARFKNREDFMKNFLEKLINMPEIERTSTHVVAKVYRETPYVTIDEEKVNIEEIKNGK
Assay: cell-based
QUANTITY: EC50
Write the numeric value and follow it with the unit.

Task item: I would be grateful if you could share the reported EC50 for `NCCC(=O)O` .
Reply: 110 µM
